# IC50 per entry
# System: A2058 cells
# experimental-protocol: Cell viability assay (Cell-Titer-Glo) in A2058 cells
# Assay type: cell-based
# setup-conditions: Homo sapiens, 48 hour treatment, test compounds 1 nM to 1 μM
# Method: Cell viability assays were run using standard protocols known to those of skill in art. Cells were plated in 96 well plates at the density of 3,000-10,000 cells per well. Twenty four hours later, cells were treated with increasing concentration of test compounds (1 nM to 1 μM). After another 48 hour, cell survival was measured using Cell-Titer-Glo® reagent (Promega) following the protocol provided by the manufacture. […]
Express it in nM; write the number only.

The following molecules have reported results that may help.
CC(=O)c1coc(-c2nc3oc2C24c5ccccc5N[C@H]2Oc2ccc(cc24)C[C@H](NC(=O)[C@@H](O)C(C)C)C(=O)N[C@H]3C(C)C)n1 (stereo partly shown); 60
CC(C)[C@H](O)C(=O)N[C@H]1Cc2ccc3c(c2)[C@]2(C4=C(c5nc(C#N)co5)N=C(O4)[C@H](C(C)C)NC1=O)c1cc(F)ccc1N[C@@H]2O3; 0.56

Given CC(O)c1coc(-c2nc3oc2C24c5ccccc5N[C@H]2Oc2ccc(cc24)C[C@H](NC(=O)[C@@H](O)C(C)C)C(=O)N[C@H]3C(C)C)n1 (stereo partly shown) , respond with its IC50. 119

* * *

# IC50 per entry
# System: A2058 cells
# experimental-protocol: Cell viability assay (Cell-Titer-Glo) in A2058 cells
# Type: cell-based
# setup-conditions: Homo sapiens, 48 hour treatment, test compounds 1 nM to 1 μM
Express it in nM; write the number only.

The following compounds have reported results that may help.
COC(=O)c1coc(-c2nc3oc2[C@@]24c5ccccc5NC2Oc2ccc(cc24)C[C@H](N(C)C(=O)[C@@H](O)C(C)C)C(=O)N[C@H]3C(C)C)n1 (some centres unmarked); 0.8
COC(=O)c1coc(-c2nc3oc2C24c5cc(ccc5O[C@@H]2Nc2c(-c5ccccc5)cccc24)C[C@H](NC(=O)[C@@H](O)C(C)C)C(=O)N[C@H]3C(C)C)n1 (some centres unmarked); 270
COC(=O)OCc1coc(-c2nc3oc2C24c5ccccc5N[C@H]2Oc2ccc(cc24)CC(NC(=O)[C@@H](O)C(C)C)C(=O)N[C@H]3C(C)(C)C)n1 (some centres unmarked); 3.33

Recall the reported IC50 of CC(=O)OCc1coc(-c2nc3oc2C24c5ccccc5N[C@H]2Oc2ccc(cc24)C[C@H](NC(=O)[C@@H](O)C(C)C)C(=O)N[C@H]3C(C)C)n1 (some centres unmarked) when tested on A2058 cells. 52

* * *

# IC50 per entry
# System: A2058 cells
# experimental-protocol: Cell viability assay (Cell-Titer-Glo) in A2058 cells
# Format: cell-based
# setup-conditions: Homo sapiens, 48 hour treatment, test compounds 1 nM to 1 μM
# Protocol: Cell viability assays were run using standard protocols known to those of skill in art. Cells were plated in 96 well plates at the density of 3,000-10,000 cells per well. Twenty four hours later, cells were treated with increasing concentration of test compounds (1 nM to 1 μM). After another 48 hour, cell survival was measured using Cell-Titer-Glo® reagent (Promega) following the protocol provided by the manufacture. […]

The following compounds have reported results that may help.
CC(C)[C@H](O)C(=O)N(C)[C@H]1Cc2ccc3c(c2)[C@]2(C4=C(c5nc(C#N)co5)N=C(O4)[C@H](C(C)C)NC1=O)c1ccccc1NC2O3 (some centres unmarked); 0.59 nM
Cc1oc(-c2nc3oc2[C@@]24c5ccccc5NC2Oc2ccc(cc24)CC(NC(=O)[C@@H](O)C(C)C)C(=O)N[C@H]3C(C)C)nc1C#N (some centres unmarked); 182 nM
COC(=O)c1coc(-c2nc3oc2C24c5ccccc5NC2Oc2ccc(cc24)C[C@H](NC(=O)[C@@H](O)C(C)C)C(=O)N[C@H]3Cc2ccccc2)n1 (some centres unmarked); > 1000 nM
CCC(O)(CC)C(=O)N[C@H]1Cc2ccc3c(c2)C2(C4=C(c5nc(CO)co5)N=C(O4)[C@H](C(C)(C)C)NC1=O)c1ccccc1N[C@H]2O3 (some centres unmarked); 43.2 nM
CC(C)[C@H](O)C(=O)N[C@H]1Cc2ccc3c(c2)C2(C4=C(c5nc(CN)co5)N=C(O4)[C@H](C(C)C)NC1=O)c1ccccc1N[C@H]2O3 (some centres unmarked); > 1000 nM
COC(=O)c1coc(-c2nc3oc2[C@@]24c5ccccc5NC2Oc2ccc(cc24)C[C@H](NC(=O)[C@@H](O)C(C)C)C(=O)NC3)n1 (some centres unmarked); > 1000 nM
COC(=O)c1coc(-c2nc3oc2C24c5ccccc5NC2Oc2ccc(cc24)C[C@H](NC(=O)[C@@H](O)C(C)C)C(=O)N[C@H]3CC(C)C)n1 (some centres unmarked); > 1000 nM
Cc1noc(-c2coc(-c3nc4oc3[C@@]35c6ccccc6NC3Oc3ccc(cc35)C[C@H](NC(=O)[C@@H](O)C(C)C)C(=O)N[C@H]4C(C)(C)C)n2)n1 (some centres unmarked); 7.06 nM

Given CC(C)[C@H](O)C(=O)N[C@H]1Cc2ccc3c(c2)C2(C4=C(c5nc(CO)co5)N=C(O4)[C@H](C(C)C)NC1=O)c1ccc(F)cc1N[C@H]2O3 (some centres unmarked) , respond with its IC50. 184 nM

Given CNCc1coc(-c2nc3oc2C24c5ccccc5N[C@H]2Oc2ccc(cc24)C[C@H](NC(=O)[C@@H](O)C(C)C)C(=O)N[C@H]3C(C)C)n1 (some centres unmarked) , respond with its IC50. > 1000 nM

Given CC(C)[C@H](O)C(=O)N[C@H]1Cc2ccc3c(c2)C2(C4=C(c5nc6cnccc6o5)N=C(O4)[C@H](C(C)C)NC1=O)c1ccccc1N[C@H]2O3 (some centres unmarked) , respond with its IC50. 142 nM

* * *

# System: A2058 cells
# experimental-protocol: Cell viability assay (Cell-Titer-Glo) in A2058 cells
# Type: cell-based
# setup-conditions: Homo sapiens, 48 hour treatment, test compounds 1 nM to 1 μM
# IC50 per entry

The following compounds have reported results that may help.
CC(C)[C@H](O)C(=O)NC1Cc2ccc3c(c2)[C@]2(C4=C(c5nc(-c6nnn[nH]6)co5)N=C(O4)[C@H](C(C)C)NC1=O)c1ccccc1NC2O3 (stereo partly shown); > 1000 nM
CC(C)[C@H](O)C(=O)N[C@H]1Cc2ccc3c(c2)[C@]2(C4=C(c5nc(CO)co5)N=C(O4)[C@H](C)NC1=O)c1ccccc1NC2O3 (stereo partly shown); > 1000 nM
CC(C)[C@H](O)C(=O)N[C@H]1Cc2ccc3c(c2)[C@]2(C4=C(c5nc(C#N)co5)N=C(O4)[C@H](C(C)(C)C)NC1=O)c1cc(F)ccc1N[C@@H]2O3; < 0.3 nM
COC(=O)c1coc(-c2nc3oc2CC/C=C/C[C@H](NC(=O)[C@@H](O)C(C)C)C(=O)N[C@H]3C(C)C)n1; > 300 nM

Given COC(=O)c1coc(-c2nc3oc2[C@@]24c5ccccc5NC2Oc2ccc(cc24)C[C@H](NC(=O)[C@@H](O)C(C)C)C2=NC3CO2)n1 (stereo partly shown) , respond with its IC50. > 1000 nM

Given COC(=O)c1coc(-c2coc([C@@H]3CCCN3C(=O)[C@H](Cc3ccc4c(c3)[C@@H]3c5ccccc5NC3O4)NC(=O)[C@@H](O)C(C)C)n2)n1 (stereo partly shown) , respond with its IC50. > 1000 nM

Given COC(=O)c1coc(-c2nc3oc2[C@]24c5ccccc5NC2Oc2ccc(cc24)CC[C@H](NC(=O)[C@@H](O)C(C)C)C(=O)N[C@H]3C(C)(C)C)n1 (stereo partly shown) , respond with its IC50. > 100 nM

Origin of the recorded values: patent US8592469B2
